# measurement description: pH-solubility profile
# Assay type: physicochemical
# condition details: aqueous solution, pH 8.8, aqueous buffer, thermodynamic from solid; Final pH 8.80
measured parameter: solubility
Returns: string containing the numeric result and its unit.

Query: Would you mind telling me what solubility value was observed for CN(C)CC(c1ccc(O)cc1)C1(O)CCOCC1 (stereo not shown) ?
Reply: 2960 µg/mL

* * *

# measurement description: pH-solubility profile
# Format: physicochemical
# condition details: aqueous solution, pH 7.1, aqueous buffer, thermodynamic from solid; Final pH 7.10
measured parameter: solubility (µg/mL)
Give the value, in units of µg/mL, as a plain number.

Query: Would you mind telling me what solubility value was observed for CN(C)CC(c1ccc(O)cc1)C1(O)CCOCC1 (stereo not shown) ?
Reply: 3470

* * *

# measurement description: pH-solubility profile
# Format: physicochemical
# condition details: aqueous solution, simulated gastric fluid, thermodynamic from solid; Final pH 1.25
measured parameter: solubility

Query: Would you mind telling me what solubility value was observed for CN(C)CC(c1ccc(O)cc1)C1(O)CCOCC1 (stereo not shown) ?
Reply: 13.6 mg/mL

* * *

# measurement description: pH-solubility profile
# Type: physicochemical
# condition details: aqueous solution, pH 4.4, aqueous buffer, thermodynamic from solid; Final pH 4.40
measured parameter: solubility (µg/mL)
Give the value, in units of µg/mL, as a plain number.

Query: Would you mind telling me what solubility value was observed for CN(C)CC(c1ccc(O)cc1)C1(O)CCOCC1 (stereo not shown) ?
Reply: 3910
